Test system: HOP-62 multicell spheroids with HUVEC/MSC, viability
Experiment: Anticancer human tumor HOP-62 cell line growth inhibition [KRAS2];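 also: viability read after a week of compound exposure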
Conditions: curve of first compound; second compound 0.316 µM
Here, each record is paired with measured pIC50 data.
As a rule, pIC50 stands for the negative log10 of the concentration, concentration in M.

In the examples that follow, each entry is paired with its recorded pIC50.
compound	assay system	pIC50
COc1cc2nccc(Oc3ccc(NC(=O)C4(C(=O)Nc5ccc(F)cc5)CC4)cc3)c2cc1OC + CNCc1ccccc1-c1csc(C(C)Nc2nc(C)nc3cc(OC)c(OC)cc23)c1	HOP-62 multicell spheroids with HUVEC/MSC, viability	5.32
CC(C)n1nc(-c2ccc3oc(N)nc3c2)c2c(N)ncnc21 + CC1OCC2(CCN(c3cnc(Sc4ccnc(N)c4Cl)c(N)n3)CC2)C1N	HOP-62 multicell spheroids with HUVEC/MSC, viability	9.17

Moving on to the next compound.
Data request: // lookup pIC50 for CC1(C)CCC(CN2CCN(c3ccc(C(=O)NS(=O)(=O)c4ccc(NCC5CCOCC5)c([N+](=O)[O-])c4)c(Oc4cnc5[nH]ccc5c4)c3)CC2)=C(c2ccc(Cl)cc2)C1 + CC1OCC2(CCN(c3cnc(Sc4ccnc(N)c4Cl)c(N)n3)CC2)C1N
Data returned: 5.48

---

Test system: HOP-62 multicell spheroids with HUVEC/MSC, viability
Assay: Anticancer human tumor HOP-62 cell line growth inhibition [KRAS2];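 also: viability read after a week of compound exposure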
Details: curve of first compound; second compound 0.0316 µM
recorded endpoint: pIC50
As a rule, pIC50 stands for the negative log10 of the concentration, concentration in M.

In the examples that follow, each entry is paired with its recorded pIC50.
compound	pIC50
CCNC(=O)CC1N=C(c2ccc(Cl)cc2)c2cc(OC)ccc2-n2c(C)nnc21 (stereo unspecified) + C=CC(=O)N1CCN(c2nc(OCC3CCCN3C)nc3c2CCN(c2cccc4cccc(C)c24)C3)CC1CC#N	6.77
CCN1CCN(Cc2ccc(Nc3ncc(F)c(-c4cc(F)c5nc(C)n(C(C)C)c5c4)n3)nc2)CC1 + C=CC(=O)N1CCN(c2nc(OCC3CCCN3C)nc3c2CCN(c2cccc4cccc(C)c24)C3)CC1CC#N	6.37
CC1(C)CCC(CN2CCN(c3ccc(C(=O)NS(=O)(=O)c4ccc(NCC5CCOCC5)c([N+](=O)[O-])c4)c(Oc4cnc5[nH]ccc5c4)c3)CC2)=C(c2ccc(Cl)cc2)C1 + C=CC(=O)N1CCN(c2nc(OCC3CCCN3C)nc3c2CCN(c2cccc4cccc(C)c24)C3)CC1CC#N	5.82
COc1cc2nccc(Oc3ccc(NC(=O)C4(C(=O)Nc5ccc(F)cc5)CC4)cc3)c2cc1OC + C=CC(=O)N1CCN(c2nc(OCC3CCCN3C)nc3c2CCN(c2cccc4cccc(C)c24)C3)CC1CC#N	5.72

Data request: // lookup pIC50 for CC(=O)Nc1cccc(-n2c(=O)n(C3CC3)c(=O)c3c(Nc4ccc(I)cc4F)n(C)c(=O)c(C)c32)c1 + C=CC(=O)N1CCN(c2nc(OCC3CCCN3C)nc3c2CCN(c2cccc4cccc(C)c24)C3)CC1CC#N
Data returned: 8.83

Data request: // lookup pIC50 for Cn1nccc1Nc1nccc(-c2cc3c(s2)C(C)(C)N(CCN2CCOCC2)C3=O)n1 + C=CC(=O)N1CCN(c2nc(OCC3CCCN3C)nc3c2CCN(c2cccc4cccc(C)c24)C3)CC1CC#N
Data returned: 6.58

Data request: // lookup pIC50 for CC(C)n1nc(-c2ccc3oc(N)nc3c2)c2c(N)ncnc21 + C=CC(=O)N1CCN(c2nc(OCC3CCCN3C)nc3c2CCN(c2cccc4cccc(C)c24)C3)CC1CC#N
Data returned: 9.33

Data request: // lookup pIC50 for CC1OCC2(CCN(c3cnc(Sc4ccnc(N)c4Cl)c(N)n3)CC2)C1N (stereo unspecified) + C=CC(=O)N1CCN(c2nc(OCC3CCCN3C)nc3c2CCN(c2cccc4cccc(C)c24)C3)CC1CC#N
Data returned: 7.16

---

Tested on: HOP-62 multicell spheroids with HUVEC/MSC, viability
Assay: Anticancer human tumor HOP-62 cell line growth inhibition [KRAS2]; active means viability on the fitted dose curve at most 10% of control; inactive means the rest;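 also: viability read after a week of compound exposure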
Conditions: second compound 3.16 µM; first compound 3.16 µM
Pick one: active, inactive

Solved cases below.
molecule	class label
CC1OCC2(CCN(c3cnc(Sc4ccnc(N)c4Cl)c(N)n3)CC2)C1N (stereo not given) + CNCc1ccccc1-c1csc(C(C)Nc2nc(C)nc3cc(OC)c(OC)cc23)c1	active
COc1cc2nccc(Oc3ccc(NC(=O)C4(C(=O)Nc5ccc(F)cc5)CC4)cc3)c2cc1OC + C=CC(=O)N1CCN(c2nc(=O)n(-c3c(C)ccnc3C(C)C)c3nc(-c4c(O)cccc4F)c(F)cc23)C(C)C1	inactive

Data request: Dear all, I need the recorded test outcome for COc1cc(Nc2ncc3c(n2)-c2ccc(Cl)cc2C(c2c(F)cccc2OC)=NC3)ccc1C(=O)O + C=CC(=O)N1CCN(c2nc(=O)n(-c3c(C)ccnc3C(C)C)c3nc(-c4c(O)cccc4F)c(F)cc23)C(C)C1 , thank you.
Data returned: inactive

Data request: Dear all, I need the recorded test outcome for Cn1nccc1Nc1nccc(-c2cc3c(s2)C(C)(C)N(CCN2CCOCC2)C3=O)n1 + C=CC(=O)N1CCN(c2nc(OCC3CCCN3C)nc3c2CCN(c2cccc4cccc(C)c24)C3)CC1CC#N , thank you.
Data returned: active

Data request: Dear all, I need the recorded test outcome for CC(=O)OC12COC1CC(O)C1(C)C(=O)C(O)C3=C(C)C(OC(=O)C(O)C(NC(=O)OC(C)(C)C)c4ccccc4)CC(O)(C(OC(=O)c4ccccc4)C21)C3(C)C (stereo not given) + C=CC(=O)N1CCN(c2nc(=O)n(-c3c(C)ccnc3C(C)C)c3nc(-c4c(O)cccc4F)c(F)cc23)C(C)C1 , thank you.
Data returned: inactive

---

System: HOP-62 multicell spheroids with HUVEC/MSC, viability
Assay: Anticancer human tumor HOP-62 cell line growth inhibition [KRAS2]; active = viability on the fitted dose curve at most 10% of control; inactive = the rest;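 also: viability read after a week of compound exposure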
Settings: second compound 3.16 µM; first compound 0.316 µM
Pick one: 1 = active, 0 = inactive

Solved cases below.
compound	assay system	class label
CC(=O)OC12COC1CC(O)C1(C)C(=O)C(O)C3=C(C)C(OC(=O)C(O)C(NC(=O)OC(C)(C)C)c4ccccc4)CC(O)(C(OC(=O)c4ccccc4)C21)C3(C)C (stereo not given) + C=CC(=O)N1CCN(c2nc(=O)n(-c3c(C)ccnc3C(C)C)c3nc(-c4c(O)cccc4F)c(F)cc23)C(C)C1	HOP-62 multicell spheroids with HUVEC/MSC, viability	0
Cn1nccc1Nc1nccc(-c2cc3c(s2)C(C)(C)N(CCN2CCOCC2)C3=O)n1 + COc1cc2nc(C)nc(NC(C)c3cc(N)cc(C(F)(F)F)c3)c2cc1OC1CCOC1	HOP-62 multicell spheroids with HUVEC/MSC, viability	0
COC(=O)c1ccc2c(C(=Nc3ccc(N(C)C(=O)CN4CCN(C)CC4)cc3)c3ccccc3)c(O)[nH]c2c1 + COc1cc2nc(C)nc(NC(C)c3cc(N)cc(C(F)(F)F)c3)c2cc1OC1CCOC1	HOP-62 multicell spheroids with HUVEC/MSC, viability	0
COc1cc(Nc2ncc3c(n2)-c2ccc(Cl)cc2C(c2c(F)cccc2OC)=NC3)ccc1C(=O)O + COc1cc2nc(C)nc(NC(C)c3cc(N)cc(C(F)(F)F)c3)c2cc1OC1CCOC1	HOP-62 multicell spheroids with HUVEC/MSC, viability	0

# ---- query compound ----
Data request: Dear all, I need the recorded test outcome for CC1OCC2(CCN(c3cnc(Sc4ccnc(N)c4Cl)c(N)n3)CC2)C1N (stereo not given) + CNCc1ccccc1-c1csc(C(C)Nc2nc(C)nc3cc(OC)c(OC)cc23)c1 , thank you.
Data returned: 1

---

System: HOP-62 multicell spheroids with HUVEC/MSC, viability
Experiment: Anticancer human tumor HOP-62 cell line growth inhibition [KRAS2];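 also: viability read after a week of compound exposure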;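 as to viability, T/C: 100% = DMSO vehicle-treated spheroids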
Details: second compound 0.316 µM; first compound 0.00316 µM; stronger effect = lower value
Criterion: viability, T/C strictly under 90%. Met: Condition met. Not met: Condition not met.

compound	assay system	class label
Cn1ncnc1[C@H]1c2n[nH]c(=O)c3cc(F)cc(c23)N[C@@H]1c1ccc(F)cc1 + COc1cc2nc(C)nc(NC(C)c3cc(N)cc(C(F)(F)F)c3)c2cc1OC1CCOC1	HOP-62 multicell spheroids with HUVEC/MSC, viability	Condition met
CN(C)C/C=C/C(=O)Nc1cc2c(Nc3ccc(F)c(Cl)c3)ncnc2cc1O[C@H]1CCOC1 + C=CC(=O)N1CCN(c2nc(OCC3CCCN3C)nc3c2CCN(c2cccc4cccc(C)c24)C3)CC1CC#N	HOP-62 multicell spheroids with HUVEC/MSC, viability	Condition met
CC(=O)Nc1cccc(-n2c(=O)n(C3CC3)c(=O)c3c(Nc4ccc(I)cc4F)n(C)c(=O)c(C)c32)c1 + CC1OCC2(CCN(c3cnc(Sc4ccnc(N)c4Cl)c(N)n3)CC2)C1N	HOP-62 multicell spheroids with HUVEC/MSC, viability	Condition met
CN(C)C/C=C/C(=O)Nc1cc2c(Nc3ccc(F)c(Cl)c3)ncnc2cc1O[C@H]1CCOC1 + CC1OCC2(CCN(c3cnc(Sc4ccnc(N)c4Cl)c(N)n3)CC2)C1N	HOP-62 multicell spheroids with HUVEC/MSC, viability	Condition not met

Data request: Quick check: does CC(C)n1nc(-c2ccc3oc(N)nc3c2)c2c(N)ncnc21 + C=CC(=O)N1CCN(c2nc(OCC3CCCN3C)nc3c2CCN(c2cccc4cccc(C)c24)C3)CC1CC#N have viability, T/C under 90%?
Data returned: Condition met
